- Test system: SW-620 colon
- Test Method Notes: NCI-60 one-dose screen, 48 h
- Condition Parameters: 10 µM unless noted
The panel holds about 83,000 compounds, 20% with a hit somewhere; the sample as a whole holds those more often. Active and inactive are the calls of the source. Rule for the calls: active = growth percent below 10; inactive = the rest.
Thanks in advance; please answer with one of these: YES for active, NO for inactive

Solved cases (5 shown):
INSERT INTO measurements (compound, system_under_test, qualitative_label) VALUES
  ('COC(=O)[C@H](CCCCNC(=O)OCc1ccccc1)NC(=O)[C@@H](NC(=O)Nc1cc(C(F)(F)F)cc(C(F)(F)F)c1)C(C)C', 'SW-620 colon', 'YES'),
  ('Cc1ccc(/C=C/C(=O)c2ccc(F)cc2)s1', 'SW-620 colon', 'NO'),
  ('COc1cc2c(cc1OC)C(=O)/C(=C/c1cccc(OCC(=O)c3ccccc3)c1)C2', 'SW-620 colon', 'NO'),
  ('CCCCN1c2nc3ccccc3cc2Sc2cc3ccccc3nc21', 'SW-620 colon', 'NO'),
  ('COc1ccc(N2CCN(CC(=O)N3CCN(c4nnc(-c5ccc(Cl)cc5)c(-c5ccc(Cl)cc5)n4)CC3)CC2)cc1', 'SW-620 colon', 'NO');

Switching to the query record.
[ask] Could you please tell me the result logged for CSc1nc(-c2ccc(O)cc2O)c2c(=O)[nH]c(Nc3ccc(S(=O)(=O)Nc4nc(C)cc(C)n4)cc3)nc2n1 in this assay?
[reply] NO
